Target: T1, human activated protein C (human, UniProt P04070 43-197; P04070 212-461)
T1 construct: also called human aPC; human APC
Assay: ELISA, coated antigen
The following binders are shown together with reported EC50 values.
PARAMETER_MEASURED: EC50

>>> result("Hu1573-17 (antibody, V domains shown, Humanized IgG, human gamma 1 / kappa constant regions by vectors pCP-hCg1 and pCP-hck; also called H1573VH.1F + H1573Vk.2B) VH: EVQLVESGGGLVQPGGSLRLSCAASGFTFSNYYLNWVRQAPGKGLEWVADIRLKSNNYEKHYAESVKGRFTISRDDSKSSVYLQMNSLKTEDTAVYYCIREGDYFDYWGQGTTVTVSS VL: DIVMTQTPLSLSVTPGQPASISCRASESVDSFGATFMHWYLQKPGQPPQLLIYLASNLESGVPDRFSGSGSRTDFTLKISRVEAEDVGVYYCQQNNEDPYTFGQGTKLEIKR")
"0.627 nM"
>>> result("Hu1573-7 (antibody, V domains shown, Humanized IgG, human gamma 1 / kappa constant regions by vectors pCP-hCg1 and pCP-hck; also called H1573VH.1C + H1573Vk.2A) VH: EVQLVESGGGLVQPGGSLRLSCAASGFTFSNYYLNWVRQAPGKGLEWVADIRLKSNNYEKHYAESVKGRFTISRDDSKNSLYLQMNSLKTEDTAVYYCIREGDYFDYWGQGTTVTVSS VL: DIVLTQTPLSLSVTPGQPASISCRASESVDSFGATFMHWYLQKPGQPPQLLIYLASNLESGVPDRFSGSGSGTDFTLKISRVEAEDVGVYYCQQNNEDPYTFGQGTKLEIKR")
"0.445 nM"
>>> result("Hu1573-3 (antibody, V domains shown, Humanized IgG, human gamma 1 / kappa constant regions by vectors pCP-hCg1 and pCP-hck; also called H1573VH.1B + H1573Vk.2) VH: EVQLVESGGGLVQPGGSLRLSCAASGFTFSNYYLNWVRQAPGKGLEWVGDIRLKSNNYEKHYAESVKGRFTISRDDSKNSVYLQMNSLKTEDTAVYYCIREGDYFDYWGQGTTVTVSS VL: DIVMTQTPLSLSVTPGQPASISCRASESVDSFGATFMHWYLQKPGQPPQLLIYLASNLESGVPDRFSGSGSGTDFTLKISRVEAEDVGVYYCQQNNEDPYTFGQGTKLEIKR")
"0.592 nM"
